molecular target: UniProt:P08183; test: Inhibition of human ABCB1 expressed in mouse L5178Y cells assessed as potentiation of doxorubicin-induced cytotoxicity by measuring combination index at 2:25 doxorubicin to compound ratio after 48 hrs by MTT assay; format: cell-based
Sequence (P08183 whole entry): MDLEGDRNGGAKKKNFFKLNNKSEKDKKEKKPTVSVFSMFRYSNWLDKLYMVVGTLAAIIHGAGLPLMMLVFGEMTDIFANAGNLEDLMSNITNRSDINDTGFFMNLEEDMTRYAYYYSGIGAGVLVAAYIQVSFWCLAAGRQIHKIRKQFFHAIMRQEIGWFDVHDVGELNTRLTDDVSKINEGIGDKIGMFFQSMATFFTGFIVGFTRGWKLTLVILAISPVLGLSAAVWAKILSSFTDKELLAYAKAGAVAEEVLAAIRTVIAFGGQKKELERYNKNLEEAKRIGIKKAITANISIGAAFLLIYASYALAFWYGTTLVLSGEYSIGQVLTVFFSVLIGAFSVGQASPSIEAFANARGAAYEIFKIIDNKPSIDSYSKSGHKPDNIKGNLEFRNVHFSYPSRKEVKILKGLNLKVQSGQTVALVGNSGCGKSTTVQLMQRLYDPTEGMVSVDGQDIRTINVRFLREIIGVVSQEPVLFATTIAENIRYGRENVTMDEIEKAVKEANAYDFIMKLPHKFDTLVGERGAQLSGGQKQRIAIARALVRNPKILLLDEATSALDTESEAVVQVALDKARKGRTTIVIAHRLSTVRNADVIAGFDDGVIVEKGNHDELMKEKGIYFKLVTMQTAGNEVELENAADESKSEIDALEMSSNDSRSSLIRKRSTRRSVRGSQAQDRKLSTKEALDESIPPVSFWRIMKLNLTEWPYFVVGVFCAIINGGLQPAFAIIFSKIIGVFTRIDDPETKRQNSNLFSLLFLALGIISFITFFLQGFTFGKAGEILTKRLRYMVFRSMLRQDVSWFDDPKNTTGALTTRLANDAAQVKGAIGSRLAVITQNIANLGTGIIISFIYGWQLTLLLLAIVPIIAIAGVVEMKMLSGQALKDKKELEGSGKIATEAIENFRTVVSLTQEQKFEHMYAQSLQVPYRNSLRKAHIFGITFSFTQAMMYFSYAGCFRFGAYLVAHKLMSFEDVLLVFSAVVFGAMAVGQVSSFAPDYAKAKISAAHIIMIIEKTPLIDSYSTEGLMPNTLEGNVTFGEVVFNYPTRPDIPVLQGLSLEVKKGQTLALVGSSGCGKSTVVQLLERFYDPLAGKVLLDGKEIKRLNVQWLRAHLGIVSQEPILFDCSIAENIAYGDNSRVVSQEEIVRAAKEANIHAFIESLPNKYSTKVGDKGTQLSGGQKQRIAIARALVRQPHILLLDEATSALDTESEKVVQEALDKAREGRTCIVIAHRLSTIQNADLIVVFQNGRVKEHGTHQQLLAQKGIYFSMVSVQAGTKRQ

smiles_input | CI
CC[C@@H]1CN(C)[C@H]2Cc3c([nH]c4ccccc34)/C(=N/Nc3ccc(Br)cn3)C[C@H]1[C@@H]2C(=O)OC | 0.19
CC[C@@H]1CN(C)[C@H]2Cc3c([nH]c4ccccc34)/C(=N/Nc3ccccc3)C[C@H]1[C@@H]2C(=O)OC | 0.2
CC[C@@H]1CN(C)[C@H]2Cc3c([nH]c4ccccc34)/C(=N/O)C[C@H]1[C@@H]2C(=O)OC | 0.36
CC[C@H]1CN(C)[C@H]2Cc3c([nH]c4ccccc34)/C(=N/Nc3ccc(Br)cn3)C[C@H]1[C@@H]2C(=O)OC | 0.28
